Target: atypical chemokine receptor ACKR3 (formerly CXCR7) (human, UniProt P25106 1-362)
Sequence (P25106 whole entry): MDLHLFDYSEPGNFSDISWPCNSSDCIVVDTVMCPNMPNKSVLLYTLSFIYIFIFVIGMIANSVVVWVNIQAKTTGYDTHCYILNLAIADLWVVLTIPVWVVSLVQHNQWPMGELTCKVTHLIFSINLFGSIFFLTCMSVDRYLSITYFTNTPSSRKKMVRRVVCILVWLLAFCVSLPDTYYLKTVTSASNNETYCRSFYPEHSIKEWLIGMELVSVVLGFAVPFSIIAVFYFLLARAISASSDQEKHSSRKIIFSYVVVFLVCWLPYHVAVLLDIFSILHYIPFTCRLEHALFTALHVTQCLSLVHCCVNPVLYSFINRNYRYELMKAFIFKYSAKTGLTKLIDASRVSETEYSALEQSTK
Test: cell-based or functional assay
No end group written: not given here.
# Supplementary Table 9: EC50 of β-arrestin-1 recruitment to ACKR3, CHO cells per entry

query: // lookup Supplementary Table 9: EC50 of β-arrestin-1 recruitment to ACKR3, CHO cells for FGGFTGARKSARK-NH2 [Nociceptin 1-13-NH2]
result: ~10000 nM
